Assignment: determine reported protein stability index for the given sequences.
# assay procedure: protein stability index of a GFP-peptide fusion (yeast GPS) (PSI 1-4); higher = more stable; sorted into four equal gates, so the index is relative within each strain
# run parameters: ubr1∆
Give bare numbers.

According to the records, this sequence LLVFRNADLDLDEMELH [YDL116W/NUP84] displays protein stability index of 2.73

What the record says about EEITCALDYLIPPPMPK [MED7] : protein stability index is 2.28

Noted for KLLATSTKIIMLLLNDS [SRB8] : its protein stability index reads 1.23

Consider ETLAYNSLKETLQDFHL [SNF2] . Its measured protein stability index is 2.7

Recorded result, SLYIYYLIKLLGFEVKD [SIR2] , protein stability index: 2.27

Looking up EENSQGNILDFNLNLPP [REC8] , I found its protein stability index recorded as 3.01

Please report protein stability index for every entry that follows.
1. PSRKDCMEVASAFMKFS [BRR2]
2. LVVRFTNKDIICQIISS [RPL5]

// result
1: 2.68; 2: 1.67

For every listed record, write down its protein stability index.
1. PEYYSTARVMGGLKNGV [DIS3]
2. RARVTKDLVEIKKEEGK [RPN5]
3. IILLGVLEDCRHLPMYT [ITC1]
4. RHMVDDKIHARARGPMQ [RPB2]
5. TVKLTEIVWTSSLIKAG [RPO31]
6. VNDSVISAPSMEDEILS [BRN1]
7. KGALMYGPPGTGKTLLA [RPT5]

// result
1. 3.01
2. 3.59
3. 2.47
4. 2.7
5. 1.24
6. 2.86
7. 1.35

----------
For each entry below, report its protein stability index value.
# assay procedure: protein stability index of a GFP-peptide fusion (yeast GPS) (PSI 1-4); higher = more stable; sorted into four equal gates, so the index is relative within each strain
# run parameters: san1∆
Give bare numbers.

Please go through the list and note protein stability index for each sequence.
1. KEELLRDGVLTVTLNKN [RRP45]
2. MVTSNVVLVSGEGERFT [SKP1]

// result
[2.21, 2.26]

----------
# assay procedure: protein stability index of a GFP-peptide fusion (yeast GPS) (PSI 1-4); higher = more stable; sorted into four equal gates, so the index is relative within each strain
# run parameters: doa10∆
endpoint: protein stability index
One number for each entry.

Illustrative cases are given below, each with its answer.
Sample TCILHGPVAAQFTKVID [FAS1] ; protein stability index observed: 1.73

The sequence IDRKVEFSLPDLEGRAN [RPT1] showed protein stability index equal to 3.15

GET /value?item= ARKSAPSTGGVKKPHRY [HHT1] &field=protein stability index returns 1.66

protein stability index for GLVNHRVGVKLKFNSTE [SMX3] is 2.48

Looking up LLLKDQQTAKKLIPKLY [ECM29] , I found its protein stability index recorded as 2.1

Fill in protein stability index for each of the 6 sequences listed.
1. VISNLVPKLESSRTKFW [YJL039C/NUP192]
2. QQQQQQQQRRQLTPQQQ [GAL11]
3. INGWELTKAQKYLDQVL [RPL17B]
4. IKAPTVAADGKLVTYIV [YLR335W/NUP2]
5. EQRKQKLSKILPRYQEL [SMC3]
6. IHLQRFDEGTTLLSPKD [RPO21]

// result
2.36
2.76
2.74
1.61
3.22
2.94
